assay_details: Efflux ratio of permeability from basolateral to apical over apical to basolateral side in dog MDCK-MDR1 cells relative to wild type MDCK cells
Format: ADME, cell-based, Canis lupus familiaris
property: Ratio

Solved entries (count: 5):
INSERT INTO assay_data (compound_structure, result) VALUES
  ('C[C@H](CN1CCC[C@@H](OC(F)F)C1)NC(=O)c1ccc(-c2noc(C(F)(F)F)n2)cc1', 1.2),
  ('C[C@H](CN1CCC(F)CC1)NC(=O)c1ccc(-c2noc(C(F)(F)F)n2)cc1', 1.2),
  ('C[C@H](CN1CCC[C@H](OC(F)F)C1)NC(=O)c1ccc(-c2noc(C(F)(F)F)n2)cc1', 1.1),
  ('C[C@H](CN1CCCCC1)NC(=O)c1ccc(-c2noc(C(F)(F)F)n2)cc1', 1.6),
  ('C[C@H](CN1CCCC(C)(C)C1)NC(=O)c1ccc(-c2noc(C(F)(F)F)n2)cc1', 1);

I: C[C@H](CN1CCCCCC1)NC(=O)c1ccc(-c2noc(C(F)(F)F)n2)cc1
II: C[C@H](CN1CCCC1)NC(=O)c1ccc(-c2noc(C(F)(F)F)n2)cc1
Which value of Ratio is smaller, the one for I or the one for II ? Answer with the label corresponding to your selection. I
(I: 1.2, II: 2.2)

###

assayed_system: Muscarinic acetylcholine receptor M1 (Homo sapiens, UniProt P11229)
Sequence (P11229 whole entry): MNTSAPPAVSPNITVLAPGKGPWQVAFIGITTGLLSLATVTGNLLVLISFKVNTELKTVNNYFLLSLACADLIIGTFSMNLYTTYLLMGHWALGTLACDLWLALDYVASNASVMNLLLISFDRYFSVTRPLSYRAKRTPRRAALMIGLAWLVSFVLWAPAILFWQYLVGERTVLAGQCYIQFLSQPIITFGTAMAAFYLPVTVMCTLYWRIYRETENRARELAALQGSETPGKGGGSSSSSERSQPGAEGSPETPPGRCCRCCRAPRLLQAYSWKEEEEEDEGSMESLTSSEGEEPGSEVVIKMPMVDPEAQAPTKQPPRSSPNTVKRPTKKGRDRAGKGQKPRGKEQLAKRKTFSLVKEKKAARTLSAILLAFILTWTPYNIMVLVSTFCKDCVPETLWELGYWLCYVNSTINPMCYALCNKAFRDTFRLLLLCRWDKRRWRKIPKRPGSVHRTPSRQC
assay_details: Displacement of [3H]pirenzapine from human recombinant M1 receptor incubated for 1 hr by radiometric scintillation counting analysis
pKd: −log10 of the molar value.
property: pKd

Retrieve pKd measured for C[C@H](CN1CCC[C@@H]1C)NC(=O)c1ccc(-c2noc(C(F)(F)F)n2)cc1 and print it. < 5.30

###

assayed_system: Histone deacetylase 4 (Homo sapiens, UniProt P56524)
Sequence (P56524 whole entry): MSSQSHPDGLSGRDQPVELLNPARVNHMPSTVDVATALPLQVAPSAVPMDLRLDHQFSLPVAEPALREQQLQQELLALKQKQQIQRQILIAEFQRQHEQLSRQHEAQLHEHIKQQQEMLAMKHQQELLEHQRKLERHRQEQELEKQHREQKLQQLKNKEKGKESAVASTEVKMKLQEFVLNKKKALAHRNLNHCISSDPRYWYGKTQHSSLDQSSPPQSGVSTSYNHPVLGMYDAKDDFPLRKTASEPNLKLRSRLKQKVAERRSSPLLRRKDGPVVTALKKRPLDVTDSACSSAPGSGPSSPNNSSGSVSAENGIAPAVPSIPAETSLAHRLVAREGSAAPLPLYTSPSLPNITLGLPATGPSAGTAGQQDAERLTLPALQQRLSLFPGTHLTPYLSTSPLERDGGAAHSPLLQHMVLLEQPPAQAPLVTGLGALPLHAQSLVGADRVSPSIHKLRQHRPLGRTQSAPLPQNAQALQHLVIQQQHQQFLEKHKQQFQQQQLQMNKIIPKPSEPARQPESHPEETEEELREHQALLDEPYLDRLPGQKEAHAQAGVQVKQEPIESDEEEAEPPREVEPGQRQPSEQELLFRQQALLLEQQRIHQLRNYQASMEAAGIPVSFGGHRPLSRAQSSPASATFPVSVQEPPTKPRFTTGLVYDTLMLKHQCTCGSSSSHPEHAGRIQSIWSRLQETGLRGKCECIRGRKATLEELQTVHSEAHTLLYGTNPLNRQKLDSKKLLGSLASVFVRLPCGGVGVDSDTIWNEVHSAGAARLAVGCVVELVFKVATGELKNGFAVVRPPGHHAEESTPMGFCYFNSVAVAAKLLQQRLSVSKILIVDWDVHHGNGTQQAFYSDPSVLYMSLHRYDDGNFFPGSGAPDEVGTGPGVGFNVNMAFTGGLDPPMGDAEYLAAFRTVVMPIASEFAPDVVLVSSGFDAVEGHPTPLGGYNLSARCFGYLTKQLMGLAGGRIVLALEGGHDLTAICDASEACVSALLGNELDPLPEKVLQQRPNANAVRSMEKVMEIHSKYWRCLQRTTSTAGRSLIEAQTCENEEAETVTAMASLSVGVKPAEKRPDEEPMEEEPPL
assay_details: Inhibition of Class 2A HDAC4 in human Jurkat E6.1 cells using Boc-Lys-(TFA)-AMC as substrate by fluorogenic assay
Type: cell-based
property: IC50 (nM)

INSERT INTO measurements (compound_structure, assayed_system, result) VALUES
  ('C[C@H](CN1CCC[C@H](OC(F)F)C1)NC(=O)c1ccc(-c2noc(C(F)(F)F)n2)cc1', 'Histone deacetylase 4 (Homo sapiens, UniProt P56524)', 10);

A: O=C(NC1(CN2CCCC2)CC1)c1ccc(-c2noc(C(F)(F)F)n2)cc1
B: C[C@H](CN1CCC[C@@H](OC(F)F)C1)NC(=O)c1ccc(-c2noc(C(F)(F)F)n2)cc1
C: C[C@H](CN1CCC(F)(F)CC1)NC(=O)c1ccc(-c2noc(C(F)(F)F)n2)cc1
D: CCCN(CCC)C[C@@H](C)NC(=O)c1ccc(-c2noc(C(F)F)n2)cc1
E: C[C@@H](CN1CCCC1)NC(=O)c1ccc(-c2noc(C(F)(F)F)n2)cc1
// ascending sort on recorded IC50 Please respond with the labels ordered as the question requires. B, A, C, E, D

###

assay_details: Tmax in C57BL/6J mouse brain at 11.5 mg/kg, po administered via gavage by LC-MS/MS analysis
Assay type: ADME, organism-based
property: Tmax (min)
// units = min; emit number, no label

# return recorded Tmax for input C[C@H](CN1CCC[C@@H]1C)NC(=O)c1ccc(-c2noc(C(F)(F)F)n2)cc1 30

###

assayed_system: Histone deacetylase 8 (Homo sapiens, UniProt Q9BY41)
Sequence (Q9BY41 whole entry): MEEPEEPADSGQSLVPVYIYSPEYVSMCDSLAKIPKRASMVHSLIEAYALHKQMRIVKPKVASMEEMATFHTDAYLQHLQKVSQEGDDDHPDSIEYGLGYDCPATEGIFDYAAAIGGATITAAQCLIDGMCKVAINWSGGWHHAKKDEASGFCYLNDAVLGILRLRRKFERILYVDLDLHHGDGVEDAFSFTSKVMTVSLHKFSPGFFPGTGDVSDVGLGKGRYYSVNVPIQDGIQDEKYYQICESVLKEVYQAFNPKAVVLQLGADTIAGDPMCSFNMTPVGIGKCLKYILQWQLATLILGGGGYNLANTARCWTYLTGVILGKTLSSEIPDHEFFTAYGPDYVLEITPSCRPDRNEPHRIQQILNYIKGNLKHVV
property: IC50 (µM)

INSERT INTO assay_data (compound_structure, assayed_system, property, unit_abbrev, result) VALUES
  ('C[C@H](CN1CCC[C@@H]1C)NC(=O)c1ccc(-c2noc(C(F)(F)F)n2)cc1', 'Histone deacetylase 8 (Homo sapiens, UniProt Q9BY41)', 'IC50', 'µM', 2),
  ('O=C(NCCN1CCCC1)c1ccc(-c2noc(C(F)(F)F)n2)cc1', 'Histone deacetylase 8 (Homo sapiens, UniProt Q9BY41)', 'IC50', 'µM', 2.8);

###

assayed_system: Histone deacetylase 4 (Homo sapiens, UniProt P56524)
assay_details: Inhibition of Class 2A HDAC4 in human Jurkat E6.1 cells using Boc-Lys-(TFA)-AMC as substrate by fluorogenic assay
Format: cell-based
pIC50: −log10 of the molar value.
property: pIC50

Below are worked cases with known answers.
INSERT INTO assay_data (compound_structure, property, result) VALUES
  ('C[C@H](CN1CCCC1)NC(=O)c1ccc(-c2noc(C(F)(F)F)n2)cc1', 'pIC50', 7.15),
  ('C[C@H](CN1CCCC(C)(C)C1)NC(=O)c1ccc(-c2noc(C(F)(F)F)n2)cc1', 'pIC50', 8.00),
  ('C[C@H](CN1CCC[C@@H]1C)NC(=O)c1ccc(-c2noc(C(F)(F)F)n2)cc1', 'pIC50', 7.40),
  ('CC(C)(CN1CCCC1)NC(=O)c1ccc(-c2noc(C(F)(F)F)n2)cc1', 'pIC50', 6.51),
  ('C[C@H](CN1CCC(F)(F)C1)NC(=O)c1ccc(-c2noc(C(F)(F)F)n2)cc1', 'pIC50', 5.89);

P: O=C(NCCN1CCCC1)c1ccc(-c2noc(C(F)(F)F)n2)cc1
Q: C[C@H](CN1CCCCC1)NC(=O)c1ccc(-c2noc(C(F)(F)F)n2)cc1
Field: lower recorded pIC50 (choose P or Q ) Return value: the label identifying the chosen record. P

a: C[C@H](CN1CCCCCC1)NC(=O)c1ccc(-c2noc(C(F)(F)F)n2)cc1
b: C[C@H](CN1CCC(F)CC1)NC(=O)c1ccc(-c2noc(C(F)(F)F)n2)cc1
c: C[C@H](CN1CCC[C@H]1C)NC(=O)c1ccc(-c2noc(C(F)(F)F)n2)cc1
Arrange the 3 compounds from largest to smallest pIC50. As an answer, provide the labels arranged in the order called for. a, b, c

###

Each entry below carries its reported IC50.
assayed_system: Histone deacetylase 4 (Homo sapiens, UniProt P56524)
assay_details: Inhibition of Class 2A HDAC4 in human Jurkat E6.1 cells using Boc-Lys-(TFA)-AMC as substrate by fluorogenic assay
Format: cell-based

INSERT INTO measurements (compound_structure, result) VALUES
  ('CCCN(CCC)C[C@@H](C)NC(=O)c1ccc(-c2nc(C(F)(F)F)no2)cc1', '> 50 µM'),
  ('CCCN(CCC)C[C@@H](C)NC(=O)c1ccc(-c2noc(C)n2)cc1', '> 50 µM');

Now for another entry.
For the compound CCCN(CCC)C[C@@H](C)NC(=O)c1ccc(-c2ncon2)cc1 , report IC50. > 50 µM

The reported measurements were obtained from ChEMBL document CHEMBL4680373.
